# Maximum cytokine response Murine annotations
test system: RAW264.7 cells; assay: Cytokine (TNFα) response of mouse macrophage cell line; Table 2 'Murine'; format: cell-based; design: unit not given here; details: NR = no response
Response field accepts a number only; no unit should be typed.

A selection of reference data follows.
Compound	Maximum cytokine response Murine
O=C(OC[C@H]1O[C@H](O[C@H]2O[C@H](COC(=O)c3cc([N+](=O)[O-])cc([N+](=O)[O-])c3)[C@@H](O)[C@H](O)[C@H]2O)[C@H](O)[C@@H](O)[C@@H]1O)c1cc([N+](=O)[O-])cc([N+](=O)[O-])c1 [UM1080]	1
O=C(OC[C@H]1O[C@H](O[C@H]2O[C@H](COC(=O)c3cccc(-c4cccc(O)c4)c3)[C@@H](O)[C@H](O)[C@H]2O)[C@H](O)[C@@H](O)[C@@H]1O)c1cccc(-c2cccc(O)c2)c1 [UM1057]	1.8
CCCCCCCCCCOc1cc(C(=O)OC[C@H]2O[C@H](O[C@H]3O[C@H](COC(=O)c4cc(OCCCCCCCCCC)c(OCCCCCCCCCC)c(OCCCCCCCCCC)c4)[C@@H](O)[C@H](O)[C@H]3O)[C@H](O)[C@@H](O)[C@@H]2O)cc(OCCCCCCCCCC)c1OCCCCCCCCCC [UM1099]	0.005

Now let's try a different one.
Looking up CC(C)(C)c1cc(C(=O)NC[C@H]2O[C@H](O[C@H]3O[C@H](CNC(=O)c4cc(C(C)(C)C)cc(C(C)(C)C)c4O)[C@@H](O)[C@H](O)[C@H]3O)[C@H](O)[C@@H](O)[C@@H]2O)c(O)c(C(C)(C)C)c1 [UM1088] , I found its Maximum cytokine response Murine recorded as 1.3
